B1: TPR t1 (parent)
chain: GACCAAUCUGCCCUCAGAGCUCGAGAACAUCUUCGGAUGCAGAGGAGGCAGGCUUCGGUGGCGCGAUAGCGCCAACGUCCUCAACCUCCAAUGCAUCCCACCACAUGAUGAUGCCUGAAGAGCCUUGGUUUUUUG

Variants of: B1
measurement.notes: polymerase ribozyme fitness, log enrichment relative to wild type (log ratio); higher = more active; in vitro selection for triplet polymerase activity
Outcome label depends on polymerase ribozyme fitness (log ratio) relative to -3: at/above gives T, below gives F.

mutations | category
G52U G61A C102U U126C | F
C56G G127A G128A | F
C73G G113U | T
C56G C98A U112A C123A | F
C72G C123A | T
G36U C56U C97A | T
G120A G128A | T
A46G C88U C97A | F
U59C C80A U81C | F
G93U U96A | T
G71A G77C C101G | T
C53A C56A U87C G120C | T
C104A G117A | T
A24G C56G C72U C86U U92A U129C | F
G65U C72A C88G C124A | F
G19A G42U G71U G122A | F
G110A C123U | T
U55A G57A G71C G113A | T
C13A C64U | T
U54A C64U A105U | T
C15U C56U G69U C102A | F
G63U U134G | T
U7G C8U C53A U59C C80U | F
C11U C62G | T
C56G A66U A74C G122A | F
U126G | T
A5C C89U | T
U59A U92G C104U | T
C8A C40G A84U | T
A5C C53A G71U C98U U112A G120U | F
C4A U7G C31G C70G C86U U87C U112A | F
C12G G45C U55C C72U C85A U96A | F
G69C C82A C97G U132A | F
G23A G120A | F
C56G U96A C123G U130C | T
G35A G44U C115A C124G | T
A118C C124G | T
C64U A121C | T
U7C A16G A29U G63U C97U U109A | T
C13A A16U G71C G120C | T
A26U G36C | F
U14A C40U C64U A91U | F
C53A G135A | T
A66G G128C | F
U7G A41C C56U | T
